System Name: human mAChR M4 (Homo sapiens, UniProt P08173)
Construct: expressed in transfected cells
Protocol Summary: mAChR M4 cell-based functional assay (calcium mobilization, CHO-K1 hM4-Gqi5 cells)
Condition Set: CHO-K1, % ACh maximum at 30 μM; human M4

Mol Smiles	Emax at 30 µM
Cc1nc(C)c(C)c(N2CCc3ncc(Nc4ccnn4C)cc3C2)n1	81%
[2H]C([2H])([2H])c1cnc2c(c1)CN(c1nnc(C(=O)N3CC4(COC4)C3)cc1C)CC2	70%
Cc1cc(C(=O)N2CC(c3cccnc3)C2)nnc1N1CCc2ncc(-n3cccn3)cc2C1	84%
Cc1c(C#N)nnc(N2CCc3ncc(Nc4ccnn4C)cc3C2)c1C	100%
Cc1cc(C(=O)NCc2ccncc2)cnc1N1CCc2ncc(Nc3ccnn3C)cc2C1	87%
Cc1nc(C)c(C)c(N2CCc3ncc(Oc4cc(F)ccc4F)cc3C2)n1	90%
Cc1noc(C)c1-c1cnc2c(c1)CN(c1nnc(C#N)c(C)c1C)CC2	83%
Cc1cc(C(=O)NCc2cncc(Br)c2)cnc1N1CCc2ncccc2C1	70%

* * *

System Name: human mAChR M4 (Homo sapiens, UniProt P08173)
Construct: expressed in transfected cells
Sequence (P08173 1-479): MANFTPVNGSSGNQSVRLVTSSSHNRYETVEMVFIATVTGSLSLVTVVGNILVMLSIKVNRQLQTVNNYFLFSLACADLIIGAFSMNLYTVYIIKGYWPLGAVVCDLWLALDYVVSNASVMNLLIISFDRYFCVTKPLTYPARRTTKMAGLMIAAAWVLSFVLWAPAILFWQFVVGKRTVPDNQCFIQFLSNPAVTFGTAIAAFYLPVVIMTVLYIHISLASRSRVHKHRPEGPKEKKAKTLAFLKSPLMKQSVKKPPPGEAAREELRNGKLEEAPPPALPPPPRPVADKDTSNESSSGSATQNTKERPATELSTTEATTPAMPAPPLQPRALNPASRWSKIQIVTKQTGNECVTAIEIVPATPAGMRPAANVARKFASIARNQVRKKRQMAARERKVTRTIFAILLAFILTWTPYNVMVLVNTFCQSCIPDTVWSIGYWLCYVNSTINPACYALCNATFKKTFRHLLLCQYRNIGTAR
Protocol Summary: mAChR M4 cell-based functional assay (calcium mobilization, CHO-K1 hM4-Gqi5 cells)
Condition Set: positive allosteric modulator activity, increase in the EC20 acetylcholine response, CHO-K1 hM4-Gqi5 cells; read-out: Human M4 EC50
In this scheme, each record receives a class according to its EC50; the ranges are lower band = under 300 nM, central band = from 300 nM up to 2000 nM, upper band = 2000 nM and over

Molecule	System Name	Category Label
Cc1c(C#N)nnc(N2CCc3ncc(N4CCOC(c5ccccn5)C4)cc3C2)c1C (stereo not drawn)	human mAChR M4 (Homo sapiens, UniProt P08173)	upper band
Cc1nc(C)c(C)c(N2CCc3ncc(Oc4cccc(F)c4F)cc3C2)n1	human mAChR M4 (Homo sapiens, UniProt P08173)	central band
Cc1cc(C(=O)N2CCc3ccncc3C2)nnc1N1CCc2ncc(C(F)(F)F)cc2C1	human mAChR M4 (Homo sapiens, UniProt P08173)	upper band
Cc1cc(C#N)cnc1N1CCc2nc(C)c(N3CCOC(C)(C)C3)cc2C1	human mAChR M4 (Homo sapiens, UniProt P08173)	central band
Cc1cc(F)ncc1-c1cnc2c(c1)CN(c1nccc(C#N)c1C)CC2	human mAChR M4 (Homo sapiens, UniProt P08173)	central band
COc1ccc(Oc2cnc3c(c2)CN(c2ncc(C#N)cc2C)CC3)cn1	human mAChR M4 (Homo sapiens, UniProt P08173)	central band
Cc1cc(C(=O)N2CCCn3nccc32)nnc1N1CCc2ncc(C(F)(F)F)cc2C1	human mAChR M4 (Homo sapiens, UniProt P08173)	upper band
Clc1nc2c(c(N3CCc4ncc(C5CC5)cc4C3)n1)COC2	human mAChR M4 (Homo sapiens, UniProt P08173)	central band
Cc1cc(C(=O)NC2CCc3ncccc3C2)nnc1N1CCc2ncc(C(F)(F)F)cc2C1 (stereo not drawn)	human mAChR M4 (Homo sapiens, UniProt P08173)	lower band
Cc1cc(C(=O)N2CC3(COC3)C2)nnc1N1CCc2ncc(-n3cccn3)cc2C1	human mAChR M4 (Homo sapiens, UniProt P08173)	lower band
Cc1c(C#N)nnc(N2CCc3ncc(N4CCC(C)n5nccc54)cc3C2)c1C (stereo not drawn)	human mAChR M4 (Homo sapiens, UniProt P08173)	central band
Cc1cc(C#N)c(-c2cccn2C)nc1N1CCc2ncc(C(F)(F)F)cc2C1	human mAChR M4 (Homo sapiens, UniProt P08173)	upper band
Cc1c(C#N)nnc(N2CCc3ncc(Oc4ccc(F)cc4)cc3C2)c1C	human mAChR M4 (Homo sapiens, UniProt P08173)	lower band
Cc1cc(C#N)cnc1N1CCc2ncc(-c3ccc(C4CC4)nc3)cc2C1	human mAChR M4 (Homo sapiens, UniProt P08173)	central band
Cc1cc(C(=O)N2CCCC2)nnc1N1CCc2ncc(-n3cccn3)cc2C1	human mAChR M4 (Homo sapiens, UniProt P08173)	upper band
Cc1nc(Cl)c(C)c(N2Cc3cc(C(F)(F)F)cnc3C(C)(C)C2)n1	human mAChR M4 (Homo sapiens, UniProt P08173)	upper band
Cc1cc(C#N)cnc1N1CCc2ncc(-c3ccns3)cc2C1	human mAChR M4 (Homo sapiens, UniProt P08173)	lower band
Cc1ccccc1Nc1cnc2c(c1)CN(c1nnc(C#N)c(C)c1C)CC2	human mAChR M4 (Homo sapiens, UniProt P08173)	central band

* * *

Parameter: Emax at 30 µM. Scope: all listed entries.
System Name: human mAChR M4 (Homo sapiens)
Construct: expressed in transfected cells
Protocol Summary: mAChR M4 cell-based functional assay (calcium mobilization, CHO-K1 hM4-Gqi5 cells)
Condition Set: CHO-K1, % ACh maximum at 30 μM; human M4

Compound	Emax at 30 µM
Cc1c(C#N)nnc(N2CCc3ncc(-c4cnn(CCN5CCOCC5)c4)cc3C2)c1C [Example 325]	51%
Cc1c(C#N)nnc(N2CCc3ncc(-c4cnn(C(F)F)c4)cc3C2)c1C [Example 326]	68%
Cc1cc(C(=O)N2CC(F)(F)C2)nnc1N1CCc2ncc(-n3cccn3)cc2C1 [Example 533]	88%
Cc1cc(C#N)nnc1N1CCc2ncc(N3CCCn4nc(C(F)(F)F)cc43)cc2C1 [Example 413]	102%
Cc1cc(C(=O)NCc2ccncc2)nnc1N1CCc2ncc(C(F)(F)F)cc2C1 [Example 493]	112%
Cc1cc(C(=O)NCC2CCCCO2)cnc1N1CCc2ncccc2C1 (centres unmarked) [compound 161]	58%
COC1CN(C(=O)c2cc(C)c(N3CCc4ncc(N5CCCn6nccc65)cc4C3)nn2)C1 [Example 548]	115%
[2H]C1([2H])Cc2ncc(Nc3ccncc3C)cc2C([2H])([2H])N1c1nnc(C#N)c(C)c1C [Example 609]	56%

* * *

System Name: human mAChR M4 (Homo sapiens)
Construct: expressed in transfected cells
Sequence (P08173 1-479): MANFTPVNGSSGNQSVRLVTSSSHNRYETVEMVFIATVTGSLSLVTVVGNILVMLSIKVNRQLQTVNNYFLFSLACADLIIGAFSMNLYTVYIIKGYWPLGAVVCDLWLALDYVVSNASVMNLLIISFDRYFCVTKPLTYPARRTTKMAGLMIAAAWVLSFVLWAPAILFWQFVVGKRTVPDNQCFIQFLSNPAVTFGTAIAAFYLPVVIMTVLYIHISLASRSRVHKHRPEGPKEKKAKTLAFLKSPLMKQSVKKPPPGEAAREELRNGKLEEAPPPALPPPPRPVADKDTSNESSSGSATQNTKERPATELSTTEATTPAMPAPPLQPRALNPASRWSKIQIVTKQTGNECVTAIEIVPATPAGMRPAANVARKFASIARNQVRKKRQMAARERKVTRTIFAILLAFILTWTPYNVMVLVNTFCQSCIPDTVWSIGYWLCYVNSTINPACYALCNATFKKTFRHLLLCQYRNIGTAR
Protocol Summary: mAChR M4 cell-based functional assay (calcium mobilization, CHO-K1 hM4-Gqi5 cells)
Condition Set: CHO-K1, % ACh maximum at 30 μM; human M4
Measure: Emax at 30 µM (%)

Mol Smiles	System Name	Obs Value
Cc1nc(Cl)c(C)c(N2CCc3ncc(Nc4ccnn4C)cc3C2)n1	human mAChR M4 (Homo sapiens)	98
[2H]C1([2H])Cc2ncc(-c3c(C)noc3C)cc2C([2H])([2H])N1c1nnc(C#N)cc1C	human mAChR M4 (Homo sapiens)	85
Cc1cc(C(N)=O)cnc1N1CCc2ncc(C(F)(F)F)cc2C1	human mAChR M4 (Homo sapiens)	102
Cc1cc(C(=O)N2Cc3ccncc3C2)nnc1N1CCc2ncc(N3CCCn4nccc43)cc2C1	human mAChR M4 (Homo sapiens)	95
Cc1cc(C#N)cnc1N1CCc2ncc(-c3cncs3)cc2C1	human mAChR M4 (Homo sapiens)	98
Cc1cc(C(=O)NCc2ccc(C(F)(F)F)cn2)cnc1N1CCc2ncccc2C1	human mAChR M4 (Homo sapiens)	61
Cc1c(C#N)nnc(N2CCc3ncc(-c4ccc(N5CCN(C)CC5)nc4)cc3C2)c1C	human mAChR M4 (Homo sapiens)	64
Cc1cc(C#N)cnc1N1CCc2ncc(Nc3ncccc3F)cc2C1	human mAChR M4 (Homo sapiens)	91
Cc1cc(C(=O)N2CC(CO)(CO)C2)nnc1N1CCc2ncc(CC(F)(F)F)cc2C1	human mAChR M4 (Homo sapiens)	91
